Source listed as patent US20230106715A1.

# study system: T1, cynomolgus monkey Siglec15-his protein (cynomolgus monkey)
# T1 construct: In house made; also called Cynomolgus Siglec15-his; cynomolgus Siglec15
# T1 chain: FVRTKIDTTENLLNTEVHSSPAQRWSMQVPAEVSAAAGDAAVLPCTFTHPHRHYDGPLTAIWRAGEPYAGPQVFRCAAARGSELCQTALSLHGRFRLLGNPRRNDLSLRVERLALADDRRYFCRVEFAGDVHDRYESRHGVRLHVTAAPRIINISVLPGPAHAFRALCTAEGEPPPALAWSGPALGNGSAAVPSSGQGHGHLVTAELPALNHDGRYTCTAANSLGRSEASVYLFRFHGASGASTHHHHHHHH
# test: SPR Biacore T200, antibody captured by anti-human IgG, antigen as analyte, 1:1 fit
pKd: −log10 of the molar value.
observable: pKd

INSERT INTO assay_data (binder, measurement) VALUES
  ('A2A5C7E8-2 (antibody, human IgG1, kappa, V domains shown, Variant of A2A5C7E8 modified in VH CDR2 (X1 = E)) VH: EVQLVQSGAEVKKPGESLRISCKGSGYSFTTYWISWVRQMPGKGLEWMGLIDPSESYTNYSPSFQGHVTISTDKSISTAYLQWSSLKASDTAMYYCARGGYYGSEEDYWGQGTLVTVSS VL: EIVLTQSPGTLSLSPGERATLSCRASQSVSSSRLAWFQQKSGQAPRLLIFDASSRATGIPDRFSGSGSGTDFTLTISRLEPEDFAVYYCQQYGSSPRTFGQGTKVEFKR', 9.83);
